assay: AUC (0 to infinity) in CD1 mouse at 10 mg/kg, po; assay type: ADME, organism-based; design: time infinity, dose 10 mg/kg, route po; details: in vivo
Reported endpoint: AUC(0-inf) (ng·h/mL)
Express the result in ng·h/mL but write the number alone.

Inquiry: I am curious: what AUC(0-inf) value has been reported for C[C@@H]1Cc2nn3c(c2CN1C(=O)Nc1ccc(F)c(C#N)c1)C(=O)N(C)O[C@@H](CF)C3 ?
Reply text: 4340

* * *

experiment: Metabolic stability in human liver microsomes assessed as intrinsic clearance; assay type: ADME, Microsome; details: read-out: CLH
Exercise: state measured CLint scaled for each of the compounds provided.
Express the result in L/h/kg but write the number alone.

Inquiry: I am curious: what CLint scaled value has been reported for CN1OC(CO)Cn2nc3c(c2C1=O)CN(C(=O)Nc1ccc(F)c(Cl)c1)CC3 (racemic) ?
Reply text: 0.48

Inquiry: I am curious: what CLint scaled value has been reported for CON(C)C(=O)c1n[nH]c2c1CN(C(=O)Nc1cccc(Cl)c1)CC2 ?
Reply text: 1.98

Inquiry: I am curious: what CLint scaled value has been reported for CN(OC1COC1)C(=O)c1n[nH]c2c1CN(C(=O)Nc1cccc(Cl)c1)CC2 ?
Reply text: 0.48

Inquiry: I am curious: what CLint scaled value has been reported for O=C(Nc1cccc(Cl)c1)N1CCc2[nH]nc(C(=O)N3CCCCO3)c2C1 ?
Reply text: 2.28

* * *

assay: Half life in CD1 mouse at 2 mg/kg, iv; assay type: ADME, organism-based; conditions: in vivo
Reported endpoint: half-life (h)
Express the result in h but write the number alone.

Inquiry: I am curious: what half-life value has been reported for C[C@@H]1Cc2nn3c(c2CN1C(=O)Nc1ccc(F)c(C#N)c1)C(=O)N(C)O[C@@H](CO)C3 ?
Reply text: 1.2

Inquiry: I am curious: what half-life value has been reported for C[C@@H]1Cc2nn3c(c2CN1C(=O)Nc1ccc(F)c(C(F)(F)F)c1)C(=O)N(C)O[C@@H](CO)C3 ?
Reply text: 1.6

Inquiry: I am curious: what half-life value has been reported for Cc1cc(NC(=O)N2Cc3c(nn4c3C(=O)N(C)O[C@@H](CO)C4)C[C@H]2C)ccc1F ?
Reply text: 1.5

* * *

test: Metabolic stability in human liver microsomes assessed as intrinsic clearance; assay type: ADME, Microsome; conditions: read-out: CLH
Reported endpoint: CLint scaled (mL/min/kg)
Express the result in mL/min/kg but write the number alone.

Inquiry: I am curious: what CLint scaled value has been reported for C[C@@H]1Cc2nn3c(c2CN1C(=O)Nc1ccc(F)c(C#N)c1)C(=O)N(C)O[C@@H](C(=O)N(C)CC(F)F)C3 ?
Reply text: 14

Inquiry: I am curious: what CLint scaled value has been reported for O=C(Nc1cccc(Cl)c1)N1CCc2[nH]nc(-c3ccccc3)c2C1 ?
Reply text: 192

Inquiry: I am curious: what CLint scaled value has been reported for C[C@@H]1Cc2nn3c(c2CN1C(=O)Nc1ccc(F)c(Cl)c1)C(=O)N(C)O[C@@H](CN(C)C)C3 ?
Reply text: 19

Inquiry: I am curious: what CLint scaled value has been reported for CC(C)ON(C)C(=O)c1n[nH]c2c1CN(C(=O)Nc1cccc(Cl)c1)CC2 ?
Reply text: 65

Inquiry: I am curious: what CLint scaled value has been reported for CN(OCCO)C(=O)c1n[nH]c2c1CN(C(=O)Nc1cccc(Cl)c1)CC2 ?
Reply text: 31

Inquiry: I am curious: what CLint scaled value has been reported for CN1O[C@@H](CO)Cn2nc3c(c2C1=O)CN(C(=O)Nc1ccc(F)c(Cl)c1)CC3 ?
Reply text: 7

Inquiry: I am curious: what CLint scaled value has been reported for CCCC(=O)c1n[nH]c2c1CN(C(=O)Nc1cccc(Cl)c1)CC2 ?
Reply text: 214

Inquiry: I am curious: what CLint scaled value has been reported for CN1O[C@H](CO)Cn2nc3c(c2C1=O)CN(C(=O)Nc1ccc(F)c(Cl)c1)CC3 ?
Reply text: 9

Inquiry: I am curious: what CLint scaled value has been reported for C[C@@H]1Cc2nn3c(c2CN1C(=O)Nc1ccc(F)c(C(F)(F)F)c1)C(=O)N(C)O[C@@H](CO)C3 ?
Reply text: 7.2

Inquiry: I am curious: what CLint scaled value has been reported for CCON(C)C(=O)c1n[nH]c2c1CN(C(=O)Nc1cccc(Cl)c1)CC2 ?
Reply text: 55

Inquiry: I am curious: what CLint scaled value has been reported for C[C@@H]1Cc2nn3c(c2CN1C(=O)Nc1ccc(F)c(Cl)c1)C(=O)N(C)O[C@@H](CO)C3 ?
Reply text: 11

Inquiry: I am curious: what CLint scaled value has been reported for CCN(C)C(=O)c1n[nH]c2c1CN(C(=O)Nc1cccc(Cl)c1)CC2 ?
Reply text: 87

Inquiry: I am curious: what CLint scaled value has been reported for CCOC(=O)c1n[nH]c2c1CN(C(=O)Nc1cccc(Cl)c1)CC2 ?
Reply text: 171

* * *

assay: Ratio of AUC (0 to 24 hrs) in liver to plasma in Sprague-Dawley rat at 5 mg/kg, po or 1.25 mg/kg, iv; format: ADME, organism-based; details: read-out: Ratio AUC
Reported endpoint: Kp
Output spec: single numeric token, no unit.

Inquiry: I am curious: what Kp value has been reported for C[C@@H]1Cc2nn3c(c2CN1C(=O)Nc1ccc(F)c(C#N)c1)C(=O)N(C)O[C@@H](COCC(F)F)C3 ?
Reply text: 3.8
